- System: UT-SCC-42B
- protocol.details: relative IC50 (midpoint of the fitted curve; maximal inhibition may be below 50%); higher = less potent
- particulars: culture condition: plastic 2D (no matrix); treatment time: 3 days
measured.quantity: relative IC50 (nM)
Answer with a number only, understood to be in nM.

Quick one: relative IC50 of C=CC(=O)Nc1cc2c(Nc3ccc(F)c(Cl)c3)ncnc2cc1OCCCN1CCOCC1 [Canertinib] ?
808

Which measured relative IC50 value corresponds to O=C(NC[C@H](O)CO)c1ccncc1Nc1ccc(I)cc1F [Pimasertib] ?
123

###

- System: UT-SCC-42B
- protocol.details: drug sensitivity score (DSS); higher = more sensitive; extreme values may be limits of the assay
- particulars: culture condition: on top of Matrigel; treatment time: 3 days
measured.quantity: log10 drug sensitivity score (log10 of the value in DSS)
# log10 transformed; quantity=drug sensitivity score; unit=DSS

# query: log10 drug sensitivity score of entry O=C(NC[C@H](O)CO)c1ccncc1Nc1ccc(I)cc1F [Pimasertib]
1.21

State the recorded log10 drug sensitivity score for this entry: CN(C)C/C=C/C(=O)Nc1cc2c(Nc3ccc(F)c(Cl)c3)ncnc2cc1O[C@H]1CCOC1 [Afatinib]
1.06

For the compound shown here, COc1cc2ncnc(Nc3ccc(F)c(Cl)c3)c2cc1OCCCN1CCOCC1 [Gefitinib] , give the reported log10 drug sensitivity score.
0.43

Quick one: log10 drug sensitivity score of C=CC(=O)Nc1cc2c(Nc3ccc(F)c(Cl)c3)ncnc2cc1OCCCN1CCOCC1 [Canertinib] ?
1.23

Which log10 drug sensitivity score is reported for this compound? Cc1c(CN2CCN(C(=O)[C@H](C)O)CC2)sc2c(N3CCOCC3)nc(-c3cnc(N)nc3)nc12 [Apitolisib]
0.74

Which log10 drug sensitivity score is listed for C#Cc1cccc(Nc2ncnc3cc(OCCOC)c(OCCOC)cc23)c1 [Erlotinib] ?
0.00

If you can, please state the reported log10 drug sensitivity score value of CO[C@H]1C[C@@H]2CC[C@@H](C)[C@@](O)(O2)C(=O)C(=O)N2CCCC[C@H]2C(=O)O[C@H]([C@H](C)C[C@@H]2CC[C@@H](OCCO)[C@H](OC)C2)CC(=O)[C@H](C)/C=C(\C)[C@@H](O)[C@@H](OC)C(=O)[C@H](C)C[C@H](C)/C=C/C=C/C=C/1C [Everolimus] .
-0.13

###

For each of the compounds below, state its maximal % inhibition of viability.
- Test system: UT-SCC-24A
- protocol.details: maximal % inhibition of viability relative to DMSO; higher = stronger effect
- particulars: culture condition: embedded in Matrigel; treatment time: 3 days
Just the number please, in %, no unit attached.

What maximal % inhibition of viability value was documented for this compound, CO[C@H]1C[C@@H]2CC[C@@H](C)[C@@](O)(O2)C(=O)C(=O)N2CCCC[C@H]2C(=O)O[C@H]([C@H](C)C[C@@H]2CC[C@@H](OP(C)(C)=O)[C@H](OC)C2)CC(=O)[C@H](C)/C=C(\C)[C@@H](O)[C@@H](OC)C(=O)[C@H](C)C[C@H](C)/C=C/C=C/C=C/1C ?
56.1

Endpoint output: maximal % inhibition of viability of Cn1cnc2c(F)c(Nc3ccc(Br)cc3F)c(C(=O)NOCCO)cc21 . Value?
79.6

Give the measured maximal % inhibition of viability of CO[C@H]1C[C@@H]2CC[C@@H](C)[C@@](O)(O2)C(=O)C(=O)N2CCCC[C@H]2C(=O)O[C@H]([C@H](C)C[C@@H]2CC[C@@H](O)[C@H](OC)C2)CC(=O)[C@H](C)/C=C(\C)[C@@H](O)[C@@H](OC)C(=O)[C@H](C)C[C@H](C)/C=C/C=C/C=C/1C .
69

I have this compound here, Cn1cnc2c(F)c(Nc3ccc(Br)cc3Cl)c(C(=O)NOCCO)cc21 , and I need its recorded maximal % inhibition of viability.
81.7
